Each record here notes measured EC30.
molecular target: F508del (Homo sapiens, UniProt P13569, DEL508-508); construct: expressed in transfected cells; assay: Protocol 2: FRET membrane potential optical assay (VIPR), identification of correction compounds; assay type: cell-based; details: F508del CFTR modulator activity; compounds of Table 1; read-out: EC30
Sequence (P13569 with tags, fused parts or gaps DEL508-508): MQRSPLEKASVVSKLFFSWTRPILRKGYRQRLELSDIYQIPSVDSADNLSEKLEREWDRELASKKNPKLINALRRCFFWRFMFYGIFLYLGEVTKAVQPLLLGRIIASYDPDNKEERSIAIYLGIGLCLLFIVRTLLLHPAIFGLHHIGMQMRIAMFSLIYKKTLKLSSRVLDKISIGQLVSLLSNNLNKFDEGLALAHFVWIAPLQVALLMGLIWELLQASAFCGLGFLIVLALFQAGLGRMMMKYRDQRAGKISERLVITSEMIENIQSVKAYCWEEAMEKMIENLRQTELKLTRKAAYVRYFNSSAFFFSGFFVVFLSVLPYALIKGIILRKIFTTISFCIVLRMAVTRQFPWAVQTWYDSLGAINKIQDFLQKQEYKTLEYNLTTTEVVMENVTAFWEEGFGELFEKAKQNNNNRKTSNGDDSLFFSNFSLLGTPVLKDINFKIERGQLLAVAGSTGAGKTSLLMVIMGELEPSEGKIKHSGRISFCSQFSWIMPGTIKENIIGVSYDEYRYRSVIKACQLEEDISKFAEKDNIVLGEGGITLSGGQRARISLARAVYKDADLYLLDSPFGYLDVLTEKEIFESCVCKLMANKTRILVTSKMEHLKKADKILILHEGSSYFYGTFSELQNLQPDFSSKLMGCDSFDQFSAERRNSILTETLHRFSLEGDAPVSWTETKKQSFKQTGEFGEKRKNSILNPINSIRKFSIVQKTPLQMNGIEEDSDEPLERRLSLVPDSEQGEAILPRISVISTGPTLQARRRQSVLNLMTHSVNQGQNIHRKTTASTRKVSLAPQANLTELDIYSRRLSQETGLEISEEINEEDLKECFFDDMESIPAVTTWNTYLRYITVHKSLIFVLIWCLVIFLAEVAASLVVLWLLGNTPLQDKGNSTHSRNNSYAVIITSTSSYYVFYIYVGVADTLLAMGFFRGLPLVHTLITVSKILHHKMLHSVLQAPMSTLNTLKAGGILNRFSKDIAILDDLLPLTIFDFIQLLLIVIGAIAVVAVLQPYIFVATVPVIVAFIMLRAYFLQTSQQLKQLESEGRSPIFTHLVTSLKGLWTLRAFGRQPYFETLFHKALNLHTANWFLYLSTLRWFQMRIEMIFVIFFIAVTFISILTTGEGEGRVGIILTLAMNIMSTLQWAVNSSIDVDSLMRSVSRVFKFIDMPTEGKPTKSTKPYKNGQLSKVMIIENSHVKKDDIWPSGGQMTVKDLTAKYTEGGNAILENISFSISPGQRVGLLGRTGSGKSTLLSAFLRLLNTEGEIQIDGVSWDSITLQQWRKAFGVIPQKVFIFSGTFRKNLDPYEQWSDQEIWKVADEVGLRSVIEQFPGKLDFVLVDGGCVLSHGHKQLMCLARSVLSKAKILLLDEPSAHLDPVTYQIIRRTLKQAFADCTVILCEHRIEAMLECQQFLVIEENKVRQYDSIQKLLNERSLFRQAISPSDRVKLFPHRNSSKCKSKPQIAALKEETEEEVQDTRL

Compound	EC30
Cc1nc2cc(Oc3cccc(S(=O)(=O)NC(=O)c4cccnc4N4CC(C)CC4(C)C)n3)ccc2s1 (stereo not shown)	< 3000 nM
CC1CN(c2ncccc2C(=O)NS(=O)(=O)c2cccc(OCc3ccccc3)n2)C(C)(C)C1 (stereo not shown)	< 3000 nM
CC1CN(c2ncccc2C(=O)NS(=O)(=O)c2cccc(Oc3cccc4cccnc34)n2)C(C)(C)C1 (stereo not shown)	3000 to 10000 nM

Challenge: // lookup EC30 for CC1CN(c2ncccc2C(=O)NS(=O)(=O)c2cccc(N3CCOC(C)C3)n2)C(C)(C)C1 (stereo not shown)
Response given: 3000 to 10000 nM

====

target: F508del (Homo sapiens, UniProt P13569, DEL508-508); construct: expressed in transfected cells; assay: Protocol 2: FRET membrane potential optical assay (VIPR), identification of correction compounds; assay type: cell-based; details: Table 3; compounds of Table 1 as modulators of CFTR activity; protocol not stated
Assay endpoint: EC30

Recorded EC30, per entry:
Molecule	Target or system	EC30
Cc1cc(C)c(Cc2nn(C(C)(C)C)cc2C(=O)NS(=O)(=O)c2ccccc2)c(C)c1 [Compound 63]	F508del (Homo sapiens, UniProt P13569, DEL508-508)	+++ (“+++” means <3 uM)
Cc1cc(C)c(CCn2nc(C(C)(C)C)cc2C(=O)NS(=O)(=O)c2cccc(N)c2)c(C)c1 [Compound 7]	F508del (Homo sapiens, UniProt P13569, DEL508-508)	+++ (“+++” means <3 uM)
Cc1cccc(C)c1Cn1nc(-c2cccc(OC(C)C)c2)cc1C(=O)NS(=O)(=O)c1ccccc1 [Compound 133]	F508del (Homo sapiens, UniProt P13569, DEL508-508)	+++ (“+++” means <3 uM)
CC(C)(C)c1cc(C(=O)NS(=O)(=O)c2cccc(N)c2)n(Cc2c(F)cccc2C(F)(F)F)n1 [Compound 239]	F508del (Homo sapiens, UniProt P13569, DEL508-508)	+++ (“+++” means <3 uM)
COc1cccc(-c2ccc(C(=O)NS(=O)(=O)c3cccc(N)n3)c(Oc3c(C)cc(C)cc3C)n2)c1F [Compound 661]	F508del (Homo sapiens, UniProt P13569, DEL508-508)	+++ (“+++” means <3 uM)
CC1CN(c2nc(-c3cncc(OCC(C)(C)C)n3)ccc2C(=O)NS(=O)(=O)c2cccc(N)n2)C(C)(C)C1 (centres unmarked) [Compound 779]	F508del (Homo sapiens, UniProt P13569, DEL508-508)	+++ (“+++” means <3 uM)
CC(C)COc1cc(F)cc(-c2ccc(C(=O)NS(=O)(=O)c3cccc(N)n3)c(OC3CCC(C)C3C)n2)c1 (centres unmarked) [Compound 503]	F508del (Homo sapiens, UniProt P13569, DEL508-508)	+++ (“+++” means <3 uM)
CC(C)COc1cc(F)cc(-c2ccc(C(=O)NS(=O)(=O)c3ccn[nH]3)c(N3CCC(C(C)C)CC3)n2)c1 [Compound 553]	F508del (Homo sapiens, UniProt P13569, DEL508-508)	+++ (“+++” means <3 uM)

Challenge: // lookup EC30 for Cc1cccc(C)c1Cn1nc(-c2cccc(OC(F)(F)F)c2)cc1C(=O)NS(=O)(=O)c1ccccc1 [Compound 225]
Response given: +++ (“+++” means <3 uM)

Challenge: Query Cc1cccc(C)c1Cn1nc(-c2ccccc2OC(F)(F)F)cc1C(=O)NS(=O)(=O)c1ccccc1 [Compound 149] next
Response given: +++ (“+++” means <3 uM)
